For each entry below, report its melting point value.

Data request: Looking for the measured melting point of `COc1cc(S(=O)(=O)Nc2ccc(Oc3ccnc4cc(OC)c(OC)cc34)cc2F)ccc1F` , can you help?
Data returned: 214 to 216 °C

Data request: Looking for the measured melting point of `Cc1cc(Oc2ccc(NS(=O)(=O)c3ccc(F)c(Cl)c3)c(F)c2)c2cccc(C(F)(F)F)c2n1` , can you help?
Data returned: 202 to 203 °C

Data request: Looking for the measured melting point of `COc1cc2c(Oc3ccc(NS(=O)(=O)c4cc(F)ccc4F)cc3F)ccnc2cc1OCCCN1CCOCC1` , can you help?
Data returned: 192 to 195 °C

Data request: Looking for the measured melting point of `COc1cc2c(Oc3ccc(NS(=O)(=O)c4c(Cl)cccc4Cl)cc3F)ccnc2cc1OCCCN1CCOCC1` , can you help?
Data returned: 194 to 196 °C

Data request: Looking for the measured melting point of `COc1cc2c(Oc3ccc(NS(=O)(=O)c4ccccc4[N+](=O)[O-])cc3F)ccnc2cc1OCCCN1CCOCC1` , can you help?
Data returned: 166 to 168 °C

Data request: Looking for the measured melting point of `COc1cc2nccc(Oc3ccc(NS(=O)(=O)c4ccc(C(F)(F)F)cc4Br)c(F)c3)c2cc1OC` , can you help?
Data returned: 236 to 238 °C

Data request: Looking for the measured melting point of `COc1cc2nccc(Oc3ccc(NS(=O)(=O)c4cc(Cl)ccc4OC)cc3)c2cc1OC` , can you help?
Data returned: 255 to 257 °C

Data request: Looking for the measured melting point of `COc1cc2nccc(Oc3ccc(NS(=O)(=O)c4cc(F)cc(F)c4)c(F)c3)c2cc1OC` , can you help?
Data returned: 243 to 245 °C

Data request: Looking for the measured melting point of `COc1cc2nccc(Oc3ccc(NS(=O)(=O)c4ccccc4C(F)(F)F)cc3F)c2cc1OC` , can you help?
Data returned: 80 to 83 °C

Data request: Looking for the measured melting point of `Cc1cc(Oc2ccc(NS(=O)(=O)c3cc4ccccc4s3)c(F)c2)c2cccc(C(F)(F)F)c2n1` , can you help?
Data returned: 182 to 184 °C

----------
Where a name gives a salt, the structure may show the parent alone.
For each entry below, report its melting point value.

Data request: Looking for the measured melting point of `COc1cc2nccc(Oc3ccc(NS(=O)(=O)c4ccc(OC)c5ccccc45)cc3C)c2cc1OC` , can you help?
Data returned: 233 to 235 °C

Data request: Looking for the measured melting point of `COc1cc2c(Oc3ccc(NS(=O)(=O)c4ccccc4OC(F)(F)F)c(C)c3)ccnc2cc1OCCN1CCOCC1` , can you help?
Data returned: 186 to 188 °C

Data request: Looking for the measured melting point of `COc1cc2nccc(Oc3ccc(NS(=O)(=O)c4cc(Cl)c(O)c(Cl)c4)c(C)c3)c2cc1OC` , can you help?
Data returned: 255 to 259 °C

Data request: Looking for the measured melting point of `COc1cc2nccc(Oc3ccc(NS(=O)(=O)c4cc(Cl)cc(Cl)c4)c(F)c3)c2cc1OC` , can you help?
Data returned: 240 to 242 °C

Data request: Looking for the measured melting point of COc1cc2c(Oc3ccc(NS(=O)(=O)c4cccc(-c5ccccc5)c4)cc3F)ccnc2cc1OCCCN (as salt: hydrochloride) , can you help?
Data returned: 198 to 202 °C

Data request: Looking for the measured melting point of `COc1cc2nccc(Oc3ccc(NS(=O)(=O)c4cc(Cl)c(O)c(Cl)c4)cc3)c2cc1OC` , can you help?
Data returned: > 260 °C

Data request: Looking for the measured melting point of `COc1cc2nccc(Oc3ccc(NS(=O)(=O)c4ccccc4OC)c(F)c3)c2cc1OC` , can you help?
Data returned: 213 to 215 °C

----------
# target.or.system: wild type AXL (wtAXL) receptor tyrosine kinase (Homo sapiens)
# Construct: WtAXL cDNA was cloned into vector pLXSN(ESK) and transfected into Phoenix E packaging cells
# Sequence (P30530 26-894): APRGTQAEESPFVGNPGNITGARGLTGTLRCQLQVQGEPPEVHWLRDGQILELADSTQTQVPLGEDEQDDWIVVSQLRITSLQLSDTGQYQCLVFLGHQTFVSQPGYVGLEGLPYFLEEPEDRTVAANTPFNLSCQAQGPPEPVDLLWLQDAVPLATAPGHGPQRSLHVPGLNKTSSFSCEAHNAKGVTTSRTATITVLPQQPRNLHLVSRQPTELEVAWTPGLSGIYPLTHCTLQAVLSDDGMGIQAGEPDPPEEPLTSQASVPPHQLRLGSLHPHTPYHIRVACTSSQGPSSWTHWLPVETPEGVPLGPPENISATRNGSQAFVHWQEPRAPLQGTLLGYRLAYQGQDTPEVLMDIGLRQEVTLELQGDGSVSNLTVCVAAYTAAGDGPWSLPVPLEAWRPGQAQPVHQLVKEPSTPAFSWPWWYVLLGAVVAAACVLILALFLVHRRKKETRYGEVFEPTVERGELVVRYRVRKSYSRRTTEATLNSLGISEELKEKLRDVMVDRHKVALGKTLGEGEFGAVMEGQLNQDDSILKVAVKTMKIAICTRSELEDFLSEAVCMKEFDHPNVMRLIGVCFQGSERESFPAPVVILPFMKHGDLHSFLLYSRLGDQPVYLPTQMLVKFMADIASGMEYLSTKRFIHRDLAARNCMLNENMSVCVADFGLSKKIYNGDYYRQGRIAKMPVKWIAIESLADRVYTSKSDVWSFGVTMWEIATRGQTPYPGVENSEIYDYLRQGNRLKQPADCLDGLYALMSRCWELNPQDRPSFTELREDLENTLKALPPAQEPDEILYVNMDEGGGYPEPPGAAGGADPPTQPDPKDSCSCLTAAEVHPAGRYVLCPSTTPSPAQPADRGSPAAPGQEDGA
# test.protocol: NIH-3T3-AXL cellular tyrosine kinase assay (inhibition of AXL phosphorylation)
# setup.conditions: AXL phosphorylation in NIH-3T3-AXL (clone 22) cells, serum-depleted, 2 h with compound, immunoprecipitation / anti-phosphotyrosine blot
For each entry below, report its pIC50 value.
Keep in mind that pIC50 stands for -log10 of concentration in molar terms.

Data request: wild type AXL (wtAXL) receptor tyrosine kinase (Homo sapiens) / pIC50 / `COc1cc2nccc(Oc3ccc(NS(=O)(=O)/C=C/c4ccccc4)c(F)c3)c2cc1OC` : value?
Data returned: 5.74

Data request: wild type AXL (wtAXL) receptor tyrosine kinase (Homo sapiens) / pIC50 / `COc1cc2nccc(Oc3ccc(NS(=O)(=O)c4cccc(OC(F)F)c4)c(F)c3)c2cc1OC` : value?
Data returned: 5.64

Data request: wild type AXL (wtAXL) receptor tyrosine kinase (Homo sapiens) / pIC50 / `COc1cc2nccc(Oc3ccc(NS(=O)(=O)c4ccc(C)s4)c(F)c3)c2cc1OC` : value?
Data returned: 5.33

Data request: wild type AXL (wtAXL) receptor tyrosine kinase (Homo sapiens) / pIC50 / `COc1cc2nccc(Oc3ccc(NS(=O)(=O)c4cccc(-c5ccccc5)c4)c(C)c3)c2cc1OC` : value?
Data returned: 6.35

Data request: wild type AXL (wtAXL) receptor tyrosine kinase (Homo sapiens) / pIC50 / `COc1cccc(S(=O)(=O)Nc2ccc(Oc3cc(C)nc4ccc(F)cc34)cc2F)c1` : value?
Data returned: 5.10

Data request: wild type AXL (wtAXL) receptor tyrosine kinase (Homo sapiens) / pIC50 / `COc1cc2nccc(Oc3ccc(NS(=O)(=O)c4ccccc4OC(F)(F)F)cc3)c2cc1OC` : value?
Data returned: 6.33

Data request: wild type AXL (wtAXL) receptor tyrosine kinase (Homo sapiens) / pIC50 / `COc1cc2nccc(Oc3ccc(NS(=O)(=O)c4ccc(Br)cc4OC(F)(F)F)cc3F)c2cc1OC` : value?
Data returned: 6.05

Data request: wild type AXL (wtAXL) receptor tyrosine kinase (Homo sapiens) / pIC50 / `Cc1cc(Oc2ccc(NS(=O)(=O)c3ccc(-c4cnco4)s3)cc2)c2cc(F)ccc2n1` : value?
Data returned: 5.10
